Values were extracted from ChEMBL document CHEMBL1201862.

# Tested on: MDA-MB-435
# PROTOCOL_SUMMARY: NCI tumour cell line growth inhibition, 48 h
Calls of active or inactive are those of the source. No stated cut-off is given here; in the data, active = GI50 up to about 1.1 µM and inactive = higher.
Answer with one of the outcomes true (active), false (inactive)

For this compound, state the assay outcome: `O=c1oc2c(ccc3c(O)cccc32)c2c1CCCC2`
false

For this compound, state the assay outcome: `O=c1sc(Nc2ccc3ccccc3c2Cl)nc2ccccc12`
false

For this compound, state the assay outcome: `NS(=O)(=O)c1ccc(NCc2cnc3ccccc3c2)cc1`
false

For this compound, state the assay outcome: `COc1cc(/C=C\C(=O)O)ccc1OCc1ccccc1`
false

For this compound, state the assay outcome: [O-][S+](CCCl)c1c2ccccc2nc2ccccc12 (stereo unspecified)
false

For this compound, state the assay outcome: `CC1(C)CCC2=C(O1)/C(=N\Nc1ccccc1)c1ccccc1C2=O`
false

For this compound, state the assay outcome: Nc1ccn(C2CC3OCC3O2)c(=O)n1 (stereo unspecified)
false

For this compound, state the assay outcome: CC(=O)C1(O)Cc2c(O)c3c(c(O)c2C(OC2CC(N)C(O)C(C)O2)C1)C(=O)c1ccccc1C3=O (stereo unspecified)
true

For this compound, state the assay outcome: CC1(C)OC[C@@H]([C@H](O)C2C=CC(=O)S2)O1 (stereo partly specified)
false

For this compound, state the assay outcome: `O=c1c2ccccc2nc(Cc2nc(-c3ccc(Cl)cc3)cs2)n1-c1ccc(Cl)cc1`
false

For this compound, state the assay outcome: [N-]=[N+]=NC1C(O)C(CO)OC1n1ccc(=O)[nH]c1=O (stereo unspecified)
false
